Value source: ChEMBL document CHEMBL1139676

For each entry below, report its pIC50 value.
FYI, pIC50 means -log10 of a concentration in mol per litre.

Q) Please look at CC1(C)C=Cc2c(cc3oc(-c4ccc(O)cc4O)cc(=O)c3c2O)O1 and tell me its recorded pIC50 on Sterol O-acyltransferase 2 (Homo sapiens, UniProt O75908).
Sequence (O75908 whole entry): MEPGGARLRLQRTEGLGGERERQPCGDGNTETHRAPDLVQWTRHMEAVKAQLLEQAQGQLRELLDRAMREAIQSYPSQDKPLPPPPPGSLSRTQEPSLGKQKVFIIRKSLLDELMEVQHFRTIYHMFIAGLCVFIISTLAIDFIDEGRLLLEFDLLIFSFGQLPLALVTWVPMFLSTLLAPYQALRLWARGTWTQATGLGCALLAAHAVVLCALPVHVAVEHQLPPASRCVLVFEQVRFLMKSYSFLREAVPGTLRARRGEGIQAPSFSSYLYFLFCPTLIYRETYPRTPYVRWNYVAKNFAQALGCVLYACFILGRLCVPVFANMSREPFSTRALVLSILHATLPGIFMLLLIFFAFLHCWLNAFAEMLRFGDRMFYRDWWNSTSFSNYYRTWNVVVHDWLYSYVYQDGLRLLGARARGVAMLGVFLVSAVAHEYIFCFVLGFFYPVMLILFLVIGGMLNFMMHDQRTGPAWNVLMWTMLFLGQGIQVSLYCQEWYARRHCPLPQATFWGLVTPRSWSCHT
A) 4.11

Q) Write pIC50 of CC(C)(O)CCc1c(O)cc(O)c2c1O[C@H](c1cc3c(cc1O)OC(C)(C)C=C3)CC2=O ; system used: Sterol O-acyltransferase 2 (Homo sapiens, UniProt O75908)
A) 4.35

Q) Report value: pIC50, system: Sterol O-acyltransferase 2 (Homo sapiens, UniProt O75908), molecule: CC(C)=CCc1c(-c2ccc(O)cc2O)oc2cc3c(c(O)c2c1=O)C=CC(C)(C)O3
A) 4.38

Q) Would you please give the reported pIC50 of C=CC(C)(C)c1c(O)cc(O)c2c(=O)c3cc(O)c4c(c3oc12)C=CC(C)(C)O4 with Sterol O-acyltransferase 2 (Homo sapiens, UniProt O75908)?
A) 4.54

Q) Consider the molecule C=CC(C)(C)c1c(O)cc(O)c2c(=O)c3c(CC=C(C)C)c(OC)c(O)cc3oc12 tested on Sterol O-acyltransferase 2 (Homo sapiens, UniProt O75908); state its pIC50.
A) 4.72

Q) With Sterol O-acyltransferase 2 (Homo sapiens, UniProt O75908) as the test system, provide measured pIC50 for this molecule: C=CC(C)(C)c1c(O)c(CC=C(C)C)c2oc3cc(O)c(O)cc3c(=O)c2c1O
A) 3.95
